# Measurement Target: Human Cot (Homo sapiens (Human))
# Experimental Protocol: High Throughput Cot Biochemical Assay
# Study Conditions: read-out: IC50 HTRF; Cot HTRF (TR-FRET) biochemical assay
Reported Property: IC50

Examples with their reported IC50 follow.
{"Compound": "CC(C)(C)CNc1c(C#N)cnc2c(C#N)cc(N[C@H](c3cn(C4(C5CC5)CC4)nn3)c3cccc4ncccc34)cc12", "IC50": "2 nM"}
{"Compound": "Cn1cc(C(Nc2cc(Cl)c3ncc(C#N)c(Nc4ccc(F)c(Cl)c4)c3c2)c2cn(C3CCN(C(C)(C)C)CC3)nn2)nn1 (stereo not drawn)", "IC50": "58 nM"}
{"Compound": "N#Cc1cnc2c(Cl)cc(N[C@H](c3c[nH]nn3)c3cncs3)cc2c1Nc1ccc(F)c(Cl)c1", "IC50": "7 nM"}
{"Compound": "Cc1ccc([C@H](Nc2cc(C#N)c3ncc(C#N)c(NCC(C)(C)C)c3c2)c2cn(C3(C(F)(F)F)CC3)nn2)c(C)n1", "IC50": "9 nM"}
{"Compound": "CC(C)(C)CNc1c(C#N)cnc2c(C#N)cc(N[C@H](c3cn(C4(C(F)F)CC4)nn3)c3ccc(F)c4ncccc34)cc12", "IC50": "2 nM"}

Lookup: Endpoint output: IC50 of Cc1ncccc1[C@H](Nc1cc(Cl)c2ncc(C#N)c(Nc3ccc(F)c(Cl)c3)c2c1)c1cn(C2CCN(C(C)(C)C)CC2)nn1 . Value?
Found: 3 nM

====

# Measurement Target: Human Cot (Homo sapiens (Human))
# Experimental Protocol: High Throughput Cot Biochemical Assay
# Study Conditions: IC50 HTRF, Cot HTRF (TR-FRET KinEASE) biochemical assay, 400 μM ATP
Catalogue of molecules with associated log10(IC50)
The figures below represent log10 of IC50, where IC50 is stated in nM.

Examples with their reported log10(IC50) follow.
{"Smiles Representation": "Cc1nc(F)ccc1[C@H](Nc1cc(Cl)c2ncc(C#N)c(NCC(C)(C)C)c2c1)c1nnn(C2(C)CC2)c1F", "Measurement Target": "Human Cot (Homo sapiens (Human))", "Value Reported": 0.48}
{"Smiles Representation": "COC[C@H](C)n1cc([C@@H](Nc2cc(Cl)c3ncc(C#N)c(NCC(C)(C)C)c3c2)c2cccc3c(=O)n(C)ccc23)nn1", "Measurement Target": "Human Cot (Homo sapiens (Human))", "Value Reported": 0.60}

Lookup: Endpoint output: log10(IC50) of Cc1nc(F)ccc1[C@H](Nc1cc(Cl)c2ncc(C#N)c(NCC(C)(C)C(F)(F)F)c2c1)c1nnn(C2CC2)c1F . Value?
Found: 0.30

Lookup: Endpoint output: log10(IC50) of COc1ccc2c([C@H](Nc3cc(C#N)c4ncc(C#N)c(NCC(C)(C)C)c4c3)c3cn(C4(C(F)(F)F)CC4)nn3)cccc2n1 . Value?
Found: 1.04

Lookup: Endpoint output: log10(IC50) of COc1c([C@@H](Nc2cc(C#N)c3ncc(C#N)c(NCC(C)(C)C)c3c2)c2ccc(F)nc2C)nnn1C1(C(F)F)CC1 . Value?
Found: 0.48

Lookup: Endpoint output: log10(IC50) of CC(C)(C)CNc1c(C#N)cnc2c(Cl)cc(N[C@@H](c3ccc4nccn4c3)c3cn(C4(C(F)(F)F)CC4)nn3)cc12 . Value?
Found: 1.38

Lookup: Endpoint output: log10(IC50) of CC(C)(C)CNc1c(C#N)cnc2c(C#N)cc(N[C@H](c3cn(C4(C(F)(F)F)CC4)nn3)c3cccc4c(=O)n(CC(F)(F)F)ccc34)cc12 . Value?
Found: 0.30

Lookup: Endpoint output: log10(IC50) of Cc1nc(F)ccc1[C@H](Nc1cc(C#N)c2ncc(C#N)c(NCC(C)(C)C(F)(F)F)c2c1)c1cn(C(C)(C)C)nn1 . Value?
Found: 0.30

Lookup: Endpoint output: log10(IC50) of Cc1nc(F)ccc1[C@H](Nc1cc(C#N)c2ncc(C#N)c(NCC(C)(C)C)c2c1)c1cn(C2(C(C)(C)C)CC2)nn1 . Value?
Found: 0.48

====

# Tested on: TNFα
# Experimental Protocol: Cot Monocyte TNFα Cell Based Assay
# Study Conditions: Homo sapiens, Monocyte, read-out: EC50 TNF, LPS-stimulated human monocytes, TNFα
pEC50: −log10 of the molar value.
Respond with fulfilled for pEC50 values of 7 and above, not fulfilled for values below.

Solved entries (count: 4):
{"Compound": "[2H][C@](Nc1cc(OC)c2ncc(C#N)c(NCC(C)(C)C)c2c1)(c1ccc(F)nc1)c1cn(C2CC2)nn1", "Measurement Target": "TNFα", "Classification": "not fulfilled"}
{"Compound": "CC(C)(C)CNc1c(C#N)cnc2c(Cl)cc(N[C@H](c3cn(C4(C(F)(F)F)CC4)nn3)c3cccn4cncc34)cc12", "Measurement Target": "TNFα", "Classification": "not fulfilled"}
{"Compound": "CC(C)(C)CNc1c(C#N)cnc2c(Cl)cc(N[C@H](c3cn(C4(C(F)F)CC4)nn3)c3ccc(F)c4cnccc34)cc12", "Measurement Target": "TNFα", "Classification": "fulfilled"}
{"Compound": "CC(C)(C)CNc1c(C#N)cnc2c(Cl)cc(N[C@H](c3cn(C4CC4)nn3)c3cccc4[nH]ncc34)cc12", "Measurement Target": "TNFα", "Classification": "fulfilled"}

Lookup: Item Cc1nc(F)ccc1[C@H](Nc1cc(Cl)c2ncc(C#N)c(NCC(C)(C)C)c2c1)c1cn(C2(C(N)=O)CC2)nn1 with pEC50 of 7 or above?
Found: not fulfilled

Lookup: Item Cc1scnc1[C@H](Nc1cc(Cl)c2ncc(C#N)c(NCC(C)(C)C)c2c1)c1cn(C2(C(F)F)CC2)nn1 with pEC50 of 7 or above?
Found: not fulfilled

Lookup: Item [2H]C(Nc1cc(Cl)c2ncc(C#N)c(N[C@H](CCC#N)c3ccccc3)c2c1)(c1ccc(F)nc1)c1cn(C2CC2)nn1 (stereo partly drawn) with pEC50 of 7 or above?
Found: not fulfilled

Lookup: Item Cc1nc(F)ccc1[C@H](Nc1cc(Cl)c2ncc(C#N)c(NCC(C)(C)C)c2c1)c1cn(C2(C(F)F)CC2)nn1 with pEC50 of 7 or above?
Found: fulfilled

Lookup: Item N#Cc1cnc2c(Cl)cc(NC(c3cccnc3)c3ccccn3)cc2c1Nc1ccc(F)c(Cl)c1 (stereo not drawn) with pEC50 of 7 or above?
Found: not fulfilled

====

Catalogue of compounds with associated IC50
# Measurement Target: Human Cot (Homo sapiens (Human))
# Experimental Protocol: High Throughput Cot Biochemical Assay
# Study Conditions: IC50 HTRF, Cot HTRF (TR-FRET) biochemical assay
A number alone suffices; assume nM.

Examples with their reported IC50 follow.
{"Smiles Representation": "CC(C)(C)CNc1c(C#N)cnc2c(C#N)cc(N[C@H](c3cn(C4(C(F)F)CC4)nn3)c3cccc4ncsc34)cc12", "Measurement Target": "Human Cot (Homo sapiens (Human))", "IC50 [nM]": 2}
{"Smiles Representation": "CCc1ncccc1[C@H](Nc1cc(C#N)c2ncc(C#N)c(NCC(C)(C)C)c2c1)c1cn(C2(C(F)(F)F)CC2)nn1", "Measurement Target": "Human Cot (Homo sapiens (Human))", "IC50 [nM]": 3}

Lookup: Can you look up IC50 on Human Cot (Homo sapiens (Human)) for CC(C)(C)CNc1c(C#N)cnc2c(C#N)cc(N[C@H](c3cn(C4CCN(C(C)(C)C)CC4)nn3)c3cccc4ncsc34)cc12 ?
Found: 2

====

Catalogue of compounds with associated pIC50
# Measurement Target: Human Cot (Homo sapiens (Human), UniProt P41279)
# Sequence (P41279 30-397): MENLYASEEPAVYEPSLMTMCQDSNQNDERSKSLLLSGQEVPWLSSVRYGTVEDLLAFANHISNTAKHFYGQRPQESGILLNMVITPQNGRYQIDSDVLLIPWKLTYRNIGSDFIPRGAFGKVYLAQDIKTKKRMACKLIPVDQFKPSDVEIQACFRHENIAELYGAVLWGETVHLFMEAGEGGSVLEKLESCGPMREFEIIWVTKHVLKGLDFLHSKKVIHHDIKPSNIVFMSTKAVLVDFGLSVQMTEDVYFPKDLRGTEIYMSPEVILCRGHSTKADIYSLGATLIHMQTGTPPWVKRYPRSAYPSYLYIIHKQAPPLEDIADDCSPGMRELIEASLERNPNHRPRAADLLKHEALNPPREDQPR
# Experimental Protocol: High Throughput Cot Biochemical Assay
# Study Conditions: IC50 HTRF, Cot HTRF (TR-FRET) biochemical assay
Quick note: pIC50 means taking -log10 of the concentration in moles per liter.

Examples with their reported pIC50 follow.
{"Compound": "Cc1nc(F)ccc1[C@H](Nc1cc(C#N)c2ncc(C#N)c(NCC(C)(C)CCl)c2c1)c1cn(C2(C(F)(F)F)CC2)nn1", "pIC50": 8.52}
{"Compound": "Cn1ccc2c([C@H](Nc3cc(Cl)c4ncc(C#N)c(NCC(C)(C)C)c4c3)c3cn(C4CC4)nn3)cccc2c1=O", "pIC50": 8.70}
{"Compound": "CC(C)(C)CNc1c(C#N)cnc2c(S(C)(=O)=O)cc(N[C@H](c3cn(C4(C(F)(F)F)CC4)nn3)c3cccc4ncsc34)cc12", "pIC50": 7.25}

Lookup: Endpoint output: pIC50 of N#Cc1cnc2c(Cl)cc(NC(c3cccnc3)c3cn(C4CCN(C(=O)OCc5ccccc5)CC4)nn3)cc2c1Nc1ccc(F)c(Cl)c1 (stereo not drawn) . Value?
Found: 6.63

Lookup: Endpoint output: pIC50 of CN(C)CCCn1cc([C@@H](Nc2cc(Cl)c3ncc(C#N)c(Nc4ccc(F)c(Cl)c4)c3c2)c2cscn2)nn1 . Value?
Found: 8.40

Lookup: Endpoint output: pIC50 of Cc1ncccc1[C@H](Nc1cc(Cl)c2ncc(C#N)c(Nc3cnc(F)c(F)c3)c2c1)c1cn(C2COC2)nn1 . Value?
Found: 8.00

Lookup: Endpoint output: pIC50 of CC(C)(C)N1CCC(n2cc([C@@H](Nc3cc(Cl)c4ncc(C#N)c(Nc5ccc(Cl)c(Cl)c5F)c4c3)c3csc4c3CCN(C3COC3)C4)nn2)CC1 . Value?
Found: 8.15

Lookup: Endpoint output: pIC50 of Cc1nc(F)ccc1[C@H](Nc1cc(Cl)c2ncc(C#N)c(NCC(C)(C)C(F)(F)F)c2c1)c1cn(C(C)(C)C)nn1 . Value?
Found: 8.52

Lookup: Endpoint output: pIC50 of Cc1ncccc1[C@H](Nc1cc(Cl)c2ncc(C#N)c(Nc3ccc(Cl)c(Cl)c3F)c2c1)c1c[nH]nn1 . Value?
Found: 7.36
